Hi there, I'd appreciate the recorded viability, T/C for every entry that follows.
Tested on: 454973-116-R2-J3-PDC spheroids, percent test/control viability
Experiment: Anticancer human tumor 454973-116-R2-J3-PDC patient-derived pancreatic carcinoma cell line growth inhibition [CLK]
Conditions: second compound 1 µM; first compound 0.0316 µM; stronger effect = lower value; spheroids with HUVEC and MSC
Numbers only, in %.

C=C(F)C(=O)N1CCN(c2nc(OCC3CCCN3C)nc3c2CCN(c2cccc4cccc(Cl)c24)C3)CC1CC#N (stereo not given) + CN1CCN(c2cc(C(=O)Nc3cc4cc(-c5cnn(C)c5)ccc4cn3)ccn2)CC1 : 0.15
Cn1ncnc1[C@H]1c2n[nH]c(=O)c3cc(F)cc(c23)N[C@@H]1c1ccc(F)cc1 + CN1CCN(c2cc(C(=O)Nc3cc4cc(-c5cnn(C)c5)ccc4cn3)ccn2)CC1 : 0.09
C=CC(=O)N1CCN(c2nc(=O)n(-c3c(C)ccnc3C(C)C)c3nc(-c4c(O)cccc4F)c(F)cc23)C(C)C1 (stereo not given) + CN1CCN(c2cc(C(=O)Nc3cc4cc(-c5cnn(C)c5)ccc4cn3)ccn2)CC1 : 0.13

Quick request: viability, T/C for each listed item, please.
1. CCc1c2c(nc3ccc(O)cc13)-c1cc3c(c(=O)n1C2)COC(=O)[C@]3(O)CC + CNC(=O)c1ccc(Nc2nc(OC3CCCC3)c3c(-c4ccc5nc(C)oc5c4)c[nH]c3n2)c(OC)c1
2. COc1ccc([C@@H](O)c2cc(-c3ncnc4cc(N5CCOCC5)ccc34)c(F)cc2Cl)nn1 + CN1CCN(c2cc(C(=O)Nc3cc4cc(-c5cnn(C)c5)ccc4cn3)ccn2)CC1

1: 6.96; 2: 0.11

###

I'd be grateful if you could share measured pIC50 for these entries.
Test system: 454973-116-R2-J3-PDC spheroids, percent test/control viability
Experiment: Anticancer human tumor 454973-116-R2-J3-PDC cell line growth inhibition [CLK];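 further: spheroids exposed to compounds for 7 days before readout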
Details: curve of first compound; second compound 0.316 µM; spheroids with HUVEC and MSC
pIC50: −log10 of the molar value.

O=C(c1cc(Cc2n[nH]c(=O)c3ccccc23)ccc1F)N1CCN(C(=O)C2CC2)CC1 + CNC(=O)c1ccc(Nc2nc(OC3CCCC3)c3c(-c4ccc5nc(C)oc5c4)c[nH]c3n2)c(OC)c1 : > 7.50
O=c1[nH]cc(F)c(=O)[nH]1 + CNC(=O)c1ccc(Nc2nc(OC3CCCC3)c3c(-c4ccc5nc(C)oc5c4)c[nH]c3n2)c(OC)c1 : 7.39
O=c1[nH]cc(F)c(=O)[nH]1 + CN1CCN(c2cc(C(=O)Nc3cc4cc(-c5cnn(C)c5)ccc4cn3)ccn2)CC1 : > 7.50
C#Cc1c(F)ccc2cc(O)cc(-c3ncc4c(N5CC6CCC(C5)N6)nc(OCC56CCCN5CC(F)C6)nc4c3F)c12 (stereo unspecified) + CN1CCN(c2cc(C(=O)Nc3cc4cc(-c5cnn(C)c5)ccc4cn3)ccn2)CC1 : > 7.50
COc1ccc([C@@H](O)c2cc(-c3ncnc4cc(N5CCOCC5)ccc34)c(F)cc2Cl)nn1 + CN1CCN(c2cc(C(=O)Nc3cc4cc(-c5cnn(C)c5)ccc4cn3)ccn2)CC1 : > 7.50

Next item in the queue.
Return reported pIC50; argument: C=CC(=O)Nc1cc(Nc2nccc(-c3cn(C)c4ccccc34)n2)c(OC)cc1N(C)CCN(C)C + CN1CCN(c2cc(C(=O)Nc3cc4cc(-c5cnn(C)c5)ccc4cn3)ccn2)CC1 > 9.02
